- testedTarget: cyclin B/CDK1 enzyme (Homo sapiens)
- Construct: purchased New England BioLabs; host or cells: Sf9 insect cells, recombinant baculovirus
- Sequence (P06493 whole entry): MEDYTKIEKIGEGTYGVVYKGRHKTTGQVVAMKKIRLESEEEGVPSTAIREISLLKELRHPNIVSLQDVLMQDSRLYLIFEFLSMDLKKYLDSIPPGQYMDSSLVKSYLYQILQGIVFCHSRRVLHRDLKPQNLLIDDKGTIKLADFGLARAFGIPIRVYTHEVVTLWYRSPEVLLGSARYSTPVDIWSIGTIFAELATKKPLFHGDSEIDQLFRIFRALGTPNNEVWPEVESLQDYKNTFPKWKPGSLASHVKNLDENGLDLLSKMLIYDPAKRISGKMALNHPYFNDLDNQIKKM
- Sequence (P14635 whole entry partner): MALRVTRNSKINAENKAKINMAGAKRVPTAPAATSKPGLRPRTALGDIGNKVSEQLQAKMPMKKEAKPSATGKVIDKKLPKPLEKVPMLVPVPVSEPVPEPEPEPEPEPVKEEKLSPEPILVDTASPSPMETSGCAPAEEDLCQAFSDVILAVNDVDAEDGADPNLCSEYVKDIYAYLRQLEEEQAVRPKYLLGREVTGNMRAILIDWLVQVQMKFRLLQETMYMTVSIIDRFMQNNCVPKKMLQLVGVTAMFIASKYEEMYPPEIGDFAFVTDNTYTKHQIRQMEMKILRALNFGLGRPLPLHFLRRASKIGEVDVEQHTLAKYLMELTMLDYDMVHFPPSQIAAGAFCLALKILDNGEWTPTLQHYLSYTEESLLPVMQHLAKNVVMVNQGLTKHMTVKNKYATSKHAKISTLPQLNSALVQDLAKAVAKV
- assayComment: CDK1 ELISA kinase assay (phospho-Rb ser 795 detection)
- Assay type: biochemical
- settings: In Vitro Enzyme Assays, read-out: CDK1 IC50
pIC50: −log10 of the molar value.
Kindly supply the reported pIC50 values for the records listed here.

Return reported pIC50 for target or system cyclin B/CDK1 enzyme (Homo sapiens), item CCCOc1ccc(CN/C=C2\C(=O)NC(=O)c3ccc(-c4ccc(F)c(F)c4)cc32)cc1O [Example 194] .
< 4.30

Return reported pIC50 for target or system cyclin B/CDK1 enzyme (Homo sapiens), item O=C1NC(=O)c2ccc(-c3ccsc3)cc2/C1=C/Nc1ccc(CN2CCCCC2)cc1 [Example 104] .
< 4.30

Return reported pIC50 for target or system cyclin B/CDK1 enzyme (Homo sapiens), item O=C1NC(=O)c2ccc(-c3ccc(F)cc3)cc2/C1=C/Nc1ccc(CN2CCCCC2)cc1 [Example 251] .
< 4.30

Return reported pIC50 for target or system cyclin B/CDK1 enzyme (Homo sapiens), item O=C1NC(=O)c2ccc(Br)cc2/C1=C/NCCCN1CCOCC1 [Example 310] .
< 4.30

Return reported pIC50 for target or system cyclin B/CDK1 enzyme (Homo sapiens), item O=C1NC(=O)c2ccc(Br)cc2/C1=C/NCc1cc(O)c(O)c(O)c1 [Example 79] .
4.37

Return reported pIC50 for target or system cyclin B/CDK1 enzyme (Homo sapiens), item CO[C@@H]1CCN(Cc2ccc(N/C=C3\C(=O)NC(=O)c4ccc(Br)cc43)cc2)C1 [Example 266] .
< 4.30

Return reported pIC50 for target or system cyclin B/CDK1 enzyme (Homo sapiens), item O=C1NC(=O)c2ccc(-c3ccc(O)cc3)cc2/C1=C/Nc1ccc(CN2CCCCC2)cc1 [Example 103] .
< 4.30

Return reported pIC50 for target or system cyclin B/CDK1 enzyme (Homo sapiens), item O=C1NC(=O)c2ccc(-c3ccsc3)cc2/C1=C/Nc1ccc(N2CCN3CCC[C@H]3C2)c(F)c1 [Example 382] .
< 4.30

Return reported pIC50 for target or system cyclin B/CDK1 enzyme (Homo sapiens), item O=C(O)CCCN/C=C1\C(=O)NC(=O)c2ccc(-n3cccc3)cc21 [Example 315] .
4.36

Return reported pIC50 for target or system cyclin B/CDK1 enzyme (Homo sapiens), item CN(C)CCN1CCN(/C=C2\C(=O)NC(=O)c3ccc(Br)cc32)CC1 [Example 106] .
< 4.30

Return reported pIC50 for target or system cyclin B/CDK1 enzyme (Homo sapiens), item O=C1NC(=O)c2ccc(-c3ccc(C(F)(F)F)cc3)cc2/C1=C/Nc1ccc(CN2CCCC2)cc1 [Example 282] .
< 4.30

Return reported pIC50 for target or system cyclin B/CDK1 enzyme (Homo sapiens), item CC1CN(c2ccc(N/C=C3\C(=O)NC(=O)c4ccc(I)cc43)cc2)CCN1C (stereo not drawn) [Example 248] .
< 4.30

Return reported pIC50 for target or system cyclin B/CDK1 enzyme (Homo sapiens), item O=C1NC(=O)c2ccc(Br)cc2/C1=C/NCc1ccc(NC(=O)C(F)(F)F)c(O)c1 [Example 218] .
< 4.30

Return reported pIC50 for target or system cyclin B/CDK1 enzyme (Homo sapiens), item O=C1NC(=O)c2ccc(I)cc2/C1=C/Nc1ccc(N2CCN(Cc3ccoc3)CC2)cc1 [Example 390] .
5.84

Return reported pIC50 for target or system cyclin B/CDK1 enzyme (Homo sapiens), item O=C1NC(=O)c2ccc(I)cc2/C1=C/Nc1ccc(CN2CCCCC2CO)cc1 (stereo not drawn) [Example 439] .
< 4.30

Return reported pIC50 for target or system cyclin B/CDK1 enzyme (Homo sapiens), item C[C@@H]1CN(c2ccc(N/C=C3\C(=O)NC(=O)c4ccc(-c5ccsc5)cc43)cc2)C[C@H](C)N1C(=O)CN(C)C [Example 380] .
4.37

Return reported pIC50 for target or system cyclin B/CDK1 enzyme (Homo sapiens), item COc1ccc(CN/C=C2\C(=O)NC(=O)c3ccc(Cl)cc32)cc1O [Example 67] .
< 4.30

Return reported pIC50 for target or system cyclin B/CDK1 enzyme (Homo sapiens), item COc1cc2c(cc1OC)/C(=C/Nc1ccc(N3CCN(C)CC3)cc1)C(=O)NC2=O [Example 37] .
< 4.30

Return reported pIC50 for target or system cyclin B/CDK1 enzyme (Homo sapiens), item O=C1NC(=O)c2ccccc2/C1=C/Nc1ccc2ncccc2c1 [Example 8] .
< 4.49

Return reported pIC50 for target or system cyclin B/CDK1 enzyme (Homo sapiens), item COC(C)C1CCCN1Cc1ccc(N/C=C2\C(=O)NC(=O)c3ccc(I)cc32)cc1 (stereo not drawn) [Example 375] .
< 4.30

Return reported pIC50 for target or system cyclin B/CDK1 enzyme (Homo sapiens), item CN(C)C(=O)c1ccc2c(c1)/C(=C/Nc1ccc(CN3CCCCC3)cc1)C(=O)NC2=O [Example 66] .
< 4.30

Return reported pIC50 for target or system cyclin B/CDK1 enzyme (Homo sapiens), item CC(C)(O)[C@H]1CCCN1Cc1ccc(N/C=C2\C(=O)NC(=O)c3ccc(I)cc32)cc1 [Example 369] .
< 4.30

Return reported pIC50 for target or system cyclin B/CDK1 enzyme (Homo sapiens), item O=C1NC(=O)c2ccc([N+](=O)[O-])cc2/C1=C/Nc1ccc(CN2CCCCC2)cc1 [compound 42] .
< 4.30

Return reported pIC50 for target or system cyclin B/CDK1 enzyme (Homo sapiens), item O=C1NC(=O)c2ccccc2/C1=C/NCc1ccc(O)cc1 [Example 61] .
4.43

Return reported pIC50 for target or system cyclin B/CDK1 enzyme (Homo sapiens), item COc1c(O)cc(CN/C=C2\C(=O)NC(=O)c3ccc(Br)cc32)cc1O [Example 210] .
4.72

Return reported pIC50 for target or system cyclin B/CDK1 enzyme (Homo sapiens), item O=C1NC(=O)c2ccc(Br)cc2/C1=C/NCc1cc(O)ccc1O [Example 173] .
< 4.30

Return reported pIC50 for target or system cyclin B/CDK1 enzyme (Homo sapiens), item O=C1NC(=O)c2ccc(N3CCCCC3)cc2/C1=C/Nc1ccc(CN2CCCCC2)cc1 [Example 118] .
< 4.30

Return reported pIC50 for target or system cyclin B/CDK1 enzyme (Homo sapiens), item CCN1CCN(c2ccc(N/C=C3\C(=O)NC(=O)c4ccc(I)cc43)cn2)CC1 [Example 414] .
< 4.30

Return reported pIC50 for target or system cyclin B/CDK1 enzyme (Homo sapiens), item CN1CCN(c2ccc(N/C=C3\C(=O)NC(=O)c4ccc(-c5ccc(C=O)cc5)cc43)cc2)CC1 [Example 115] .
5.09

Return reported pIC50 for target or system cyclin B/CDK1 enzyme (Homo sapiens), item COc1ccc(CN/C=C2\C(=O)NC(=O)c3ccc(I)cc32)cc1O [Example 80] .
5.22

Return reported pIC50 for target or system cyclin B/CDK1 enzyme (Homo sapiens), item CN1CCCN(c2ccc(N/C=C3\C(=O)NC(=O)c4ccc(Br)cc43)cc2)CC1 [Example 232] .
< 4.30

Return reported pIC50 for target or system cyclin B/CDK1 enzyme (Homo sapiens), item COc1cccc(-c2ccc3c(c2)/C(=C/Nc2ccc(CN4CCCCC4)cc2)C(=O)NC3=O)c1 [Example 117] .
< 4.30

Return reported pIC50 for target or system cyclin B/CDK1 enzyme (Homo sapiens), item CN(C)c1ccc(CN/C=C2\C(=O)NC(=O)c3ccc(I)cc32)cc1O [Example 347] .
5.17

###

- testedTarget: cyclin E/CDK2 enzyme (Homo sapiens)
- Construct: made in house; host or cells: Sf9 insect cells, recombinant baculovirus
- assayComment: CDK2 ELISA kinase assay (phospho-Rb ser 795 detection)
- Assay type: biochemical
- settings: In Vitro Enzyme Assays, read-out: CDK2 IC50
quantityKind: pIC50
Please treat pIC50 as minus the base-10 logarithm of the molar concentration.

Specify reported pIC50 for the molecule shown: CN(C)c1ccc(CN/C=C2\C(=O)NC(=O)c3ccc(I)cc32)cc1O [Example 347]
5.82

Specify reported pIC50 for the molecule shown: COc1ccc(CNC=C2C(=O)NCc3ccccc32)cc1O [Example 160]
4.51

Specify reported pIC50 for the molecule shown: O=C1NC(=O)c2ccc(Br)cc2/C1=C/NCc1cccnc1 [compound 30]
5.85

Specify reported pIC50 for the molecule shown: COc1cc(CN/C=C2\C(=O)NC(=O)c3ccc(Br)cc32)ccn1 [Example 222]
5.21

Specify reported pIC50 for the molecule shown: CN1CCN(c2ccc(N/C=C3\C(=O)NC(=O)c4ccc(I)cc43)c(O)n2)CC1 [Example 447]
4.75

Specify reported pIC50 for the molecule shown: O=C(O)CCCN/C=C1\C(=O)NC(=O)c2ccc(Br)cc21 [Example 314]
4.43

Specify reported pIC50 for the molecule shown: COC(=O)[C@H]1CCCN1Cc1ccc(NC=C2C(=O)NC(=O)c3ccc(I)cc32)cc1 [Example 367]
4.36

Specify reported pIC50 for the molecule shown: COc1ccc(CN/C=C2\C(=O)NC(=O)c3ccc(-c4cccc(F)c4)cc32)cc1O [Example 209]
5.04
